Listing of entries alongside the reported TGI.
# Tested on: SF-268 CNS
# PROTOCOL: NCI tumour cell line growth inhibition, 48 h

COc1ccc(COCC[C@H](C)OC2OC(CO[Si](C)(C)C(C)(C)C)C(O)C(O)C2O)cc1 (stereo partly drawn) :: > 100 µM
CN(C)CCC(=O)[C@@]1(O)CC[C@H]2[C@@H]3CC=C4C[C@@H](O)CC[C@]4(C)[C@H]3CC[C@@]21C :: 32.2 µM
C=CC(C)(C)NC(C(=O)N1CCC[C@H]1c1nc(-c2nc(C(=O)OCC=C(C)C)c(C)o2)c(C)o1)C(C)C (stereo partly drawn) :: > 100 µM
CC1CC(C)(O)C2C3(C)CCCC2(COC3=O)C12CCC1(CCOC1=O)O2 (stereo not drawn) :: > 250 µM

Could you tell me which TGI is on file for `Cc1ccc(NC(=S)NNC(=S)Nc2ccc(C)cc2)cc1` ?
> 100 µM

Could you tell me which TGI is on file for `NS(=O)(=O)c1ccc(N=Nc2c(O)[nH]c3ccc(C(=O)NCCCn4ccnc4)cc23)cc1` ?
> 25 µM

Could you tell me which TGI is on file for `Nc1ccc(Oc2ccc(C34CC5C6CC7(c8ccc(Oc9ccc(N)cc9)cc8)CC5C(C3)C(C7)C6C4)cc2)cc1` ?
> 100 µM

Could you tell me which TGI is on file for `O=C(O)C1=Cc2cccc3cccc(c23)C1=O` ?
> 100 µM

Could you tell me which TGI is on file for CNC(=O)/C=C/C1=CN2C(=O)c3ccc(C)c(O)c3NC(OC)C2C1 (stereo not drawn) ?
0.08 µM

Could you tell me which TGI is on file for `COC(=O)c1cc(O)ccc1O` ?
> 100 µM

Could you tell me which TGI is on file for `COc1ccc(OC)c(C2=C(c3cn(C)c4ccccc34)C(=O)NC2=O)c1` ?
> 25 µM

Could you tell me which TGI is on file for `Cc1cc2c(cc1Cl)SC(NNCCO)=NS2(=O)=O` ?
> 100 µM

Could you tell me which TGI is on file for Cc1ccccc1N(CCC#N)C1=NN(C(=O)CC(=O)Nc2ccc(Cl)cc2)C(c2ccccc2)C1 (stereo not drawn) ?
> 100 µM

Could you tell me which TGI is on file for `COc1ccc2c(O)c1-c1c(OC)ccc(c1O)SSc1ccc(OC)c(c1O)-c1c(OC)ccc(c1O)SS2` ?
> 100 µM

====

Listing of entries alongside the reported TGI.
# Test system: SN12C renal
# PROTOCOL: NCI tumour cell line growth inhibition, 48 h

C#CN1C(=O)c2c(c(-c3ccccc3)c(-c3ccc(Oc4ccc(-c5c(-c6ccccc6)c6c(c(-c7ccccc7)c5-c5ccccc5)C(=O)N(C#C)C6=O)cc4)cc3)c(-c3ccccc3)c2-c2ccccc2)C1=O :: > 100 µM
Nc1[nH]c(=O)nc2c1cnn2COCCO :: > 100 µM
Cc1ccc(S(=O)(=O)c2ccc(C)cc2[N+](=O)[O-])c([N+](=O)[O-])c1 :: > 100 µM
CC(C)N(C(C)C)S(=O)(=O)CC12CCC(C/C1=N\O)C2 (centres undefined) :: > 100 µM
CC(C)N(CC(=O)O)CC(=O)O :: > 100 µM

Could you tell me which TGI is on file for CC(=O)NC1C(OCc2ccccc2)OC(CO)C(O)C1OCC(=O)NC(C(=O)NC(CCC(=O)NCCCCCC(=O)Nc1ccc2c(c1)CN1C(=O)c3ccccc3C1=N2)C(N)=O)C(C)C (centres undefined) ?
> 100 µM

Could you tell me which TGI is on file for `Cc1csc2nc(-c3cc([N+](=O)[O-])c(Cl)cc3Cl)c(/C=N/N=C(N)N)n12` ?
29.8 µM

====

# Test system: TK-10 renal
# PROTOCOL: NCI tumour cell line growth inhibition, 48 h
Where a SMILES comes first, the peptide text is derived from it. [ ]: non-standard residue; d: D form. The star is where a group is joined. ξ: configuration not given here. NMeY = CN[C@@H](Cc1ccc(O)cc1)C(=O)O; Cbz = O=C(OCc1ccccc1)*; ξA = CC(N)C(=O)O
Listing of entries alongside the reported TGI.

Could you tell me which TGI is on file for COc1ccc(C2=C(c3ccccc3)C(=O)N3CCCC3C2)cc1 (stereo not drawn) ?
> 100 µM

Could you tell me which TGI is on file for COc1ccc(C[C@@H](C(=O)N[C@@H](C)C(N)=O)N(C)C(=O)[C@@H]2CCCN2C(=O)[C@H](CC(C)C)NC(=O)C(C)NC(=O)OCc2ccccc2)cc1 (stereo partly drawn) (Cbz-[ξA]LP[NMeY](Me)A-NH2) ?
> 100 µM

Could you tell me which TGI is on file for CCOc1cc(Cl)c(C(C)NC(=O)c2cccc(OC)c2)cc1OCC (stereo not drawn) ?
> 100 µM

Could you tell me which TGI is on file for `COC(=O)c1cc(/C=C/C(=O)Cc2ccccc2)cn1S(=O)(=O)c1ccccc1` ?
> 100 µM

Could you tell me which TGI is on file for `Cc1csc2nc(-c3cc([N+](=O)[O-])c(Cl)cc3Cl)c(/C=N/N=C(N)N)n12` ?
32.4 µM

Could you tell me which TGI is on file for `Nc1ccc(Oc2ccc(C34CC5C6CC7(c8ccc(Oc9ccc(N)cc9)cc8)CC5C(C3)C(C7)C6C4)cc2)cc1` ?
> 100 µM

Could you tell me which TGI is on file for Cc1ccc(C(=O)NC2C(=O)NC(C(C)C)C(=O)N3CCCC3C(=O)N(C)CC(=O)N(C)C(C(C)C)C(=O)OC2C)c2c1Oc1c(c(C(=O)NC3C(=O)NC(C(C)C)C(=O)N4CCCC4C(=O)N(C)CC(=O)N(C)C(C(C)C)C(=O)OC3C)c3nc(-c4ccccc4)c(=O)oc3c1C)N2 (stereo not drawn) ?
11.4 µM

Could you tell me which TGI is on file for `Cc1c2c(n3c(nc4ccccc43)c1C#N)N(c1ccc(F)cc1)CC2` ?
> 100 µM

Could you tell me which TGI is on file for `COc1ccc2nc3cccc([N+](=O)[O-])c3c(NCCC(=O)O)c2c1` ?
> 10 µM

Could you tell me which TGI is on file for `CS(=O)(=O)N1CCC(Nc2ncc(C(=O)c3c(F)cccc3F)c(N)n2)CC1` ?
> 25 µM

Could you tell me which TGI is on file for `O=S(=O)(O)c1c(Cl)c(Cl)c(O)c2ncccc12` ?
27.4 µM

Could you tell me which TGI is on file for `O=C(c1ccccc1)n1cc(/C=C/[N+](=O)[O-])c2ccccc21` ?
> 100 µM

Could you tell me which TGI is on file for `COc1cc(-c2oc3c(OC)c(O)c(OC)c(O)c3c(=O)c2OC)cc(OC)c1OC` ?
> 100 µM

Could you tell me which TGI is on file for CC1(C)CC(=O)c2c(-c3ccc(Cl)cc3)c(C#N)c(=S)n(C3OC(CO)C(O)C(O)C3O)c2C1 (stereo not drawn) ?
> 100 µM

Could you tell me which TGI is on file for `COc1ccc(/C(C)=C2\CCCN(Cc3ccccc3)C2)cc1` ?
> 100 µM

Could you tell me which TGI is on file for `CCCCCCCCCN=C(N)c1ccc(N2CCN(c3ccc(C(N)=NCCCCCCCCC)cc3)CC2)cc1` ?
14.7 µM

Could you tell me which TGI is on file for COc1ccccc1/C=C1\CCC(Cc2ccccc2)(CN(C)C)C1=O (stereo not drawn) ?
> 77.7 µM

Could you tell me which TGI is on file for CCCCC(CC)C(=O)Oc1ccc(C(=O)c2ccccc2)c(O)c1 (stereo not drawn) ?
> 100 µM

====

# Tested on: EKVX NSCLC
# PROTOCOL: NCI tumour cell line growth inhibition, 48 h
Listing of entries alongside the reported TGI.

Some entries whose results are on file:
Nc1ccc(-c2nc3ccccc3s2)cc1CO :: > 49.2 µM
COC(=O)[C@]12CC[C@H]3CN(S(=O)(=O)c4ccc(C)cc4)[C@H]([C@H]31)[C@H](c1ccco1)N2S(=O)(=O)c1ccc(C)cc1 :: > 100 µM
O=C(c1ccccc1)c1ccc(N2C(=O)/C(=C/c3cccc(Oc4ccccc4)c3)N=C2c2ccccc2)c(N2C(=O)/C(=C/c3cccc(Oc4ccccc4)c3)N=C2c2ccccc2)c1 :: > 100 µM
Cn1cc(-c2csc(-c3ccccc3)n2)c2cccnc21 :: 35.2 µM

Value wanted: TGI (EKVX NSCLC) of entry `Cc1nc(C)c(N2CCN(Cc3ccccc3)CC2)c(=O)[nH]1`
> 100 µM

Value wanted: TGI (EKVX NSCLC) of entry `CSC1=CC(=O)c2ccccc2C1=O`
34.9 µM

Value wanted: TGI (EKVX NSCLC) of entry `CCOC(=O)C(C(=O)OCC)c1cc(-c2cc3ccccc3o2)oc(=O)c1C#N`
> 100 µM

Value wanted: TGI (EKVX NSCLC) of entry `COc1ccc(-c2nc3sccn3c2-c2ccnc(NCCNS(=O)(=O)c3ccc(C(F)(F)F)cc3)n2)cc1`
> 100 µM
